Hi there, I'd appreciate the recorded EC50 for every entry that follows.
# Tested on: Hepatitis C virus
# procedure.details: Antiviral activity against HCV infected in human HuH7 cells by cell-based subgenomic replicon assay
# Assay type: functional, organism-based, Hepacivirus hominis, Huh-7
# run.parameters: Hepatitis C virus, Huh-7
Give bare numbers, in µM.

Recorded EC50, per entry:
>  <molecule>
CCOC(=O)[C@H](CC)NP1(=O)OC[C@H]2O[C@@H](n3ccc(N)nc3=O)[C@](C)(O)[C@@H]2O1 (stereo partly drawn)

>  <value>
5.6

$$$$
>  <molecule>
CCCCCCCOC(=O)[C@H](C)NP1(=O)OC[C@H]2O[C@@H](n3ccc(N)nc3=O)[C@](C)(O)[C@@H]2O1 (stereo in doubt; 12 S.E.)

>  <value>
10.5

$$$$
>  <molecule>
CCOC(=O)[C@H](C)N[P@]1(=O)OC[C@H]2O[C@@H](n3ccc(N)nc3=O)[C@](C)(O)[C@@H]2O1

>  <value>
4

$$$$
>  <molecule>
COCCCOC(=O)[C@H](C)NP1(=O)OC[C@H]2O[C@@H](n3ccc(N)nc3=O)[C@](C)(O)[C@@H]2O1 (stereo in doubt; 16 S.E.)

>  <value>
28

$$$$

Lab note: each molecule below needs its EC50 filled in.
1. CCCCOC(=O)[C@H](C)NP1(=O)OC[C@H]2O[C@@H](n3ccc(N)nc3=O)[C@](C)(O)[C@@H]2O1 (stereo in doubt; 10 S.E.)
2. CCCC(CCC)COC(=O)[C@H](C)NP1(=O)OC[C@H]2O[C@@H](n3ccc(N)nc3=O)[C@](C)(O)[C@@H]2O1 (stereo in doubt; 20 S.E.)

Response:
1: 15; 2: 14
